Collected IC50 for Angiopoietin-1 receptor (Homo sapiens) across several studies; molecules listed below.

See these solved cases before continuing.
| compoundSmiles | targetSystem | IC50 |
| --- | --- | --- |
| CN1CCN(c2cccc(-c3cnn4c(N)c(-c5ccccc5Cl)cnc34)c2)CC1 | Angiopoietin-1 receptor (Homo sapiens) | 1 to 10 µM |
| COc1ccc(-c2cnn3c(N)c(-c4cccc(Cl)c4)c(C)nc23)cc1OC | Angiopoietin-1 receptor (Homo sapiens) | > 10 µM |
| CCCCOc1ccc(NC(=O)N(CCn2nc(-c3ccncc3)nc2-c2ccc(OC)c(Cl)c2)C2CCCC2)cc1 | Angiopoietin-1 receptor (Homo sapiens) | ≥ 10 µM |

The reported IC50 of the molecule `COc1cc(Nc2ncnc(-n3c(Nc4ccc(Cl)cc4)nc4ccccc43)n2)cc(OC)c1OC` was > 8.93 µM
